max response reference
assay-protocol: Cycloheximide Counterscreen for Small Molecule Inhibitors of Shiga Toxin; also: read at 38.3 µM for the half of the compounds with a filed dose; 0% is about no effect
condition-context: cell reporter, cycloheximide protein synthesis inhibition counterscreen; stronger effect = higher value
Hit rate of the full screen: of about 300,000 compounds, about 37,000 (12%) were called active. The entries come from a sample that favours actives as a whole.
Respond with the bare value in %.

Below, 4 compounds whose answers are already recorded.
COc1ccc(NC(=O)CCCC(=O)c2ccccc2)cc1 : 12
CC(NC(=S)Nc1ccccc1)C(c1cccs1)N1CCOCC1 (stereo unspecified) : -0.819
COc1ccc(NC(=O)C(C)N2c3cccc4cccc(c34)S2(=O)=O)c(OC)c1 (stereo unspecified) : -5.29
Cn1nc(C(F)(F)F)c(C(=O)Nc2cccc(C(F)(F)F)c2)c1SCc1ccc(Cl)cc1 : -3.55

Prompt line: Field request: max response | item: Cc1ccc(C(=O)NC2CCN(C(=O)Nc3ccc(F)cc3)CC2)cc1
Response line: -5.94

Prompt line: Field request: max response | item: COC(=O)c1ccc(NCC(=O)N2CCCCCC2)cc1
Response line: 19.4

* * *

assay-protocol: Cycloheximide Counterscreen for Small Molecule Inhibitors of Shiga Toxin; also: read at 38.3 µM for the half of the compounds with a filed dose; 0% is about no effect
condition-context: cell reporter, cycloheximide protein synthesis inhibition counterscreen; stronger effect = higher value
Among all 300,000 compounds or so, about 37,000 (12%) were called active. This excerpt belongs to a sample that is enriched for actives.
recorded-metric: max response

Below, 3 compounds whose answers are already recorded.
CCOC(=O)c1sc(NC(=O)CSc2nc3c(c(=O)n2-c2ccccc2)SCC3)c(C(=O)OCC)c1C : -2.16% (inactive)
Cn1cc(Cl)c(C(=O)NNC(=S)Nc2cccc(Cl)c2)n1 : 42% (active)
CCCS(=O)(=O)Nc1ccc(-c2cn3c(n2)SCC3)cc1 : 1.28% (inactive)

Prompt line: Field request: max response | item: Cc1ccc(NN=Nc2nc3c([nH]2)c(=O)n(C)c(=O)n3C)cc1
Response line: 11.7% (inactive)

Prompt line: Field request: max response | item: CC(C)CNC(=S)NNC(=O)c1nn(C)cc1Cl
Response line: -2.88% (inactive)

Prompt line: Field request: max response | item: C/C(=C\c1ccccc1)C1NC(=O)c2c(sc3c2CCCC3)N1 (stereo not drawn)
Response line: 36.6% (active)

Prompt line: Field request: max response | item: COc1cc(OC)c2c(C)cc(=O)oc2c1C(CCN1CCCCC1)c1ccc(N(C)C)cc1 (stereo not drawn)
Response line: -1.45% (inactive)

Prompt line: Field request: max response | item: CCc1ccccc1NC(=O)/C(=C/c1ccccc1)c1ccccc1
Response line: 8.5% (inactive)

Prompt line: Field request: max response | item: CCOC(=O)C1=C(CN2CCCCCC2)NC(=O)NC1c1cccc([N+](=O)[O-])c1 (stereo not drawn)
Response line: -4.55% (inactive)

Prompt line: Field request: max response | item: CC(C)(C)N(Cc1ccccc1)C(=O)c1ccncc1
Response line: -0.936% (inactive)

Prompt line: Field request: max response | item: O=C(CCc1nnc(Cc2ccc3c(c2)OCO3)o1)NCCc1ccccc1Cl
Response line: 4.94% (inactive)

Prompt line: Field request: max response | item: CCn1cc(C(=O)NCc2ccc(OC)cc2OC)c(=O)c2ccc(C)nc21
Response line: -2.54% (inactive)

Prompt line: Field request: max response | item: Cc1nc2ccc(N3CCN(C)CC3)cc2nc1C
Response line: 40.7% (active)

Prompt line: Field request: max response | item: CCCCN(C)CCNC(=O)C1CCCN(S(=O)(=O)c2cccc3nsnc23)C1 (stereo not drawn)
Response line: -7.69% (inactive)

Prompt line: Field request: max response | item: CCN(CC)c1ccc2c(Nc3ccccc3)c(C=O)c(=O)oc2c1
Response line: 17.7% (active)

Prompt line: Field request: max response | item: O=C1CCCCC1C(=O)c1ccccc1 (stereo not drawn)
Response line: 12.6% (inactive)

Prompt line: Field request: max response | item: O=C(Nc1sc2c(c1-c1nc3ccccc3[nH]1)CCCC2)C1CC1
Response line: 16.7% (inactive)

Prompt line: Field request: max response | item: O=C1NC(c2ccncc2)Nc2sc3c(c21)CCCC3 (stereo not drawn)
Response line: 26.5% (active)

Prompt line: Field request: max response | item: COc1ccc(-c2noc(COc3ccc(Cl)c(C)c3)n2)cc1
Response line: 8.61% (inactive)

Prompt line: Field request: max response | item: CCOC(=O)c1sc(-c2cccc([N+](=O)[O-])c2)cc1N
Response line: 19% (active)

Prompt line: Field request: max response | item: FC(F)(F)c1nnc2c3ccccc3c(Cl)nn12
Response line: -3.49% (inactive)

Prompt line: Field request: max response | item: c1csc(-c2cn3c(n2)SCC3)c1
Response line: 22.4% (active)

Prompt line: Field request: max response | item: CCC(=O)Nc1ccc(S(=O)(=O)Nc2c(NC)c3ccccc3oc2=O)cc1
Response line: 11% (inactive)
